Each recorded value in this set is attributed to the supplement of paper PMC10567573.

B1: PPFIA4 (parent)
chain: VMTLPSDLRKHRRKLLSPVSREEN

- Variants of: B1
- TEST_DETAILS: protein stability index of a GFP-peptide fusion (GPS, HEK-293T) (PSI 1-6); higher = more stable;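 further: lentivirally expressed fusions sorted by FACS into six bins by GFP to DsRed ratio, PSI derived from sequencing read proportions per bin multiplied by bin number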
- MEASUREMENT_PARAMETERS: c terminus: a fixed tail appended
PROPERTY_NAME: protein stability index

1) K10W; 3.35
2) K14W; 2.43
3) M2Q; 3.06
4) V1M; 3.89
5) T3C; 3.56
6) D7E; 3.46
7) P5S; 3.08
8) R13H; 4.05
9) M2F; 3.19
10) R21T; 4.12
11) S17V; 3.53
12) L4M; 3.69
13) L16A; 4.34
14) N24I; 3.34
15) R12H; 3.92
16) R21D; 4.16
17) D7C; 2.86
18) R9G; 4.46
19) V1C; 3.81
20) P5V; 2.76
21) L16S; 4.43
22) P18C; 3.51
